TARGET_UNDER_TEST: FGFR3 (UniProt P22607)
Sequence (P22607 whole entry, looked up): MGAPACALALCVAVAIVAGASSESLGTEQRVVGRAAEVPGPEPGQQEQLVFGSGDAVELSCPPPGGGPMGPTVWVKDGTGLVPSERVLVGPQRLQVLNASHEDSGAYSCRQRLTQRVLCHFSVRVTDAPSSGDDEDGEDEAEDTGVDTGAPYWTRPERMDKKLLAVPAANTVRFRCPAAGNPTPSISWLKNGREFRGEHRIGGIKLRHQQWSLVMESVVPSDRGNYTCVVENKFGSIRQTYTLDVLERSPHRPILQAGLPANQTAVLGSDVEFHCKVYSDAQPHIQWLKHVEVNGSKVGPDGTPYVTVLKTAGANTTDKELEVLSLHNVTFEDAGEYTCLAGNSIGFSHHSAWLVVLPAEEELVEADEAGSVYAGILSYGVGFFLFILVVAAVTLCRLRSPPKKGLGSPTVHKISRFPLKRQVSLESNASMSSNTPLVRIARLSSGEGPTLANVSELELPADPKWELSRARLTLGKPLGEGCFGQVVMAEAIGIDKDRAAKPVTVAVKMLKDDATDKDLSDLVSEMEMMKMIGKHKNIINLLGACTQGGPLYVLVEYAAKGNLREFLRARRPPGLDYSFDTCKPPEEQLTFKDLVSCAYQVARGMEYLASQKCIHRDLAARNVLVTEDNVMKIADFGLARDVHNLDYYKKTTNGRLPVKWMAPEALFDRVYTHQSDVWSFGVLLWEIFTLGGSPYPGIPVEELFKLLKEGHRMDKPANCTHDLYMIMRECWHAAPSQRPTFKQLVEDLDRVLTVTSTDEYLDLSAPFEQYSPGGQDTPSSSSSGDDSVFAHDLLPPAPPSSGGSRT
ASSAY_DETAILS: phosphorylation enrichment, bacterial display (enrichment ratio); higher = better substrate or ligand; peptides without Tyr show the background;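 note: 11-residue human phosphosite peptides and single-mutation variants displayed on the E. coli surface, counted by deep sequencing, each peptide's frequency after selection divided by its frequency in the unselected input library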;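 note: frequency after pTyr selection over input frequency; kinase dosed for 20-30% of maximal phosphorylation in three min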
EXPERIMENTAL_ENDPOINT: phosphorylation enrichment
// return a plain number; no unit text

Study these solved cases before continuing.
QRRFLYFFSFL [PTEN_Y176_V175L_YF] :: 1.16
NTYEKYLGEEY [TF_Y669] :: 0.756
KKCTRYIDCAL [ASPA_Y64_D68A] :: 0.568
IKNSGYISQYL [EIF2AK3_Y585_R588Q] :: 0.458
DLDTDYGSGYP [RNASEH2A_Y206] :: 0.879

Look up and state reported phosphorylation enrichment for GNLLIYTELGK [HGD_Y166_F169L] 1.19

Supply measured phosphorylation enrichment of EEGNPYFSSTR [MCCC2_Y520_A524T_YF] in your reply. 0.621

Read the entry DEEDFYQGSME [ASCC1_Y36] and write its reported phosphorylation enrichment. 0.953
